# ASSAY: Pharmacokinetic studies in human, Compound I in plasma by LC/MS/MS
# Assay type: in vivo
# STUDY_CONDITIONS: human, plasma, iv, 100 mg/m2, Group 2, 100 mg/m^2 IV, Day 8, mean, n = 3
ATTRIBUTE_MEASURED: Cmax (ng/mL)
Enter your answer as a number in ng/mL; do not include the unit.

Given `Cc1cnc(CNC(=O)c2c(=O)c3ccc(N4CCCN(C)CC4)nc3n3c2sc2ccccc23)cn1` , state its recorded Cmax.
804

====

# ASSAY: Pharmacokinetic studies in human, Compound I in plasma by LC/MS/MS
# Assay type: in vivo
# STUDY_CONDITIONS: human, plasma, intravenous, Groups 8-10, Day 15 dose, range of group means; read-out: Apparent elimination half-lives
ATTRIBUTE_MEASURED: half-life

Given `Cc1cnc(CNC(=O)c2c(=O)c3ccc(N4CCCN(C)CC4)nc3n3c2sc2ccccc23)cn1` , state its recorded half-life.
59 to 93.6 h

====

# ASSAY: Pharmacokinetic studies in human, Compound I in plasma by LC/MS/MS
# Assay type: in vivo
# STUDY_CONDITIONS: human, plasma, iv, 325 mg/m2, Group 6, 325 mg/m^2 IV, Day 1, mean, n = 3
ATTRIBUTE_MEASURED: Tmax
Note: a bare number is incomplete; add the unit.

Given `Cc1cnc(CNC(=O)c2c(=O)c3ccc(N4CCCN(C)CC4)nc3n3c2sc2ccccc23)cn1` , state its recorded Tmax.
1.02 h

====

# ASSAY: Pharmacokinetic studies in human, Compound I in plasma by LC/MS/MS
# Type: in vivo
# STUDY_CONDITIONS: human, plasma, iv, 100 mg/m2, Group 2, 100 mg/m^2 IV, Day 1, mean, n = 4
ATTRIBUTE_MEASURED: Cmax (ng/mL)
Enter your answer as a number in ng/mL; do not include the unit.

Given Cc1cnc(CNC(=O)c2c(=O)c3ccc(N4CCCN(C)CC4)nc3n3c2sc2ccccc23)cn1 [Compound I] , state its recorded Cmax.
1090

====

# ASSAY: Pharmacokinetic studies in human, Compound I in plasma by LC/MS/MS
# Assay type: in vivo
# STUDY_CONDITIONS: human, plasma, iv, 150 mg/m2, Group 3, 150 mg/m^2 IV, Day 8, mean, n = 4
# Experimental: […] Levels of Compound I in patient's plasma were analyzed by liquid chromatography tandem mass spectrometry (LC/MS/MS) assay. […] The concentrations of Compound I in human plasma samples collected from subjects of as discussed above. Compound I concentrations in plasma samples were measured based on 9 levels of calibration standards from 5.00 to 5000 ng/mL, and 3 levels of QC at 15.0 ng/mL (low), 2500 ng/mL (mid), and 4000 ng/mL (high). […]
ATTRIBUTE_MEASURED: Vd (L)
Enter your answer as a number in L; do not include the unit.

Given `Cc1cnc(CNC(=O)c2c(=O)c3ccc(N4CCCN(C)CC4)nc3n3c2sc2ccccc23)cn1` , state its recorded Vd.
939

====

# ASSAY: Pharmacokinetic studies in human, Compound I in plasma by LC/MS/MS
# Assay type: in vivo
# STUDY_CONDITIONS: human, plasma, iv, 475 mg/m2, Group 7, 475 mg/m^2 IV, Day 1, mean, n = 3
ATTRIBUTE_MEASURED: Vd (L)
Enter your answer as a number in L; do not include the unit.

Given `Cc1cnc(CNC(=O)c2c(=O)c3ccc(N4CCCN(C)CC4)nc3n3c2sc2ccccc23)cn1` , state its recorded Vd.
2590
